Cited source: ChEMBL document CHEMBL4699576

# Tested on: MCF7
# protocolDetails: Antiproliferative activity against human MCF7 cells assessed as reduction in cell viability after 72 hrs by MTT assay
# Assay type: functional, cell-based
# measurementConditions: MCF7, 72 h
Would you kindly list pIC50 for each of these compounds?
Field pIC50 (float): negative decimal logarithm of the concentration in molar.

Input: Using the record for C=CC1=C(C)C(=O)C=C2c3ccc(O)c(C)c3CC[C@@]21OC , report its pIC50.
Output: 5.21

Input: For C=Cc1c(C)c(O)cc2c1CCc1c-2ccc(O)c1C , what is its reported pIC50?
Output: 4.93

---

# Tested on: C-33-A
# protocolDetails: Antiproliferative activity against human C33A cells assessed as reduction in cell viability at 0.1 to 30 uM after 72 hrs by MTT assay
# Type: functional, cell-based
# measurementConditions: dose microM 0.1-30, time 72.0 hrs
Active and inactive are the calls of the source. The calls are words filed in the database; no cut-off is given here.
Just give me one of these, please: active, inactive

Input: What call does the record list for C=CC1=C(C)C(=O)C=C2C3=C(CCC21OCC)C(C)(OCC)C(=O)C=C3 (racemic; 6a) ?
Output: active

Input: In this assay, the call recorded for C=CC1=C(C)C(=O)C=C2c3ccc(O)c(C)c3CC[C@]21OC was what?
Output: inactive

Input: For C=CC1=C2CCc3c(ccc(O)c3C)C2=CC(=O)C1(C)OCC (racemic) , what call appears in the results of this test?
Output: inactive

Input: Just curious, what result did C=CC1=C(C)C(=O)C(OCCCC)(OCCCC)c2c1ccc1c2C=CC(=O)C1(C)OCCCC (racemic) get here?
Output: inactive

Input: Returns: the outcome recorded for C=CC1=C(C)C(=O)C=C2C3(OC)C=CC(=O)C(C)=C3CCC21OC (racemic; 2b) in this assay.
Output: inactive
